Test: qHTS of pediatric cancer cell lines to identify multiple opportunities for drug repurposing: Primary screen for SK-N-SH cells (AID 1347098); further: nearly all actives have a fitted effect of over 65% in size
Settings: SK-N-SH viability, CellTiter-Glo luminescence, 48 h; series mostly up to 57 µM
Inconclusive results are not listed. The source made the active and inactive calls. The call rests on the fitted dose curve; in most records, active means well fitted cell-killing curve with a large enough effect; inconclusive means small, poorly fitted or top-dose-only effect; inactive means no such curve, though single readings can be large or run the other way.
Outcome codes: Y (active), N (inactive)

MOLECULE | CAT
COC(=O)Nc1ccc(-c2nc(N3CCOCC3)c3cnn(C4CCN(C(=O)OC)CC4)c3n2)cc1 | Y
CC(C)(F)C[C@H](N[C@@H](c1ccc(-c2ccc(S(C)(=O)=O)cc2)cc1)C(F)(F)F)C(=O)NC1(C#N)CC1 | N
CN(C)c1nc(Cc2ccc(NC(=O)c3ccc(C(F)(F)F)cc3)cc2)nc(N(C)C)c1CC(=O)O | N
O[C@@H](COc1cccc2ncccc12)CN1CCN(C2c3ccccc3[C@@H]3[C@H](c4ccccc42)C3(F)F)CC1 (stereo partly specified) | Y
C=CCc1cccc(C=NNC(=O)CN2CCN(Cc3ccccc3)CC2)c1O | Y
Cn1cc(-c2ccc3nnc(Sc4ccc5ncccc5c4)n3n2)cn1 | N
CC(=O)NCCC(=O)N[C@@H](CCC(N)=O)C(=O)N[C@@H](CO)C(=O)N[C@@H](CCC(N)=O)C(=O)N[C@@H](CCC(N)=O)C(=O)N[C@H](C(=O)N[C@@H](Cc1ccccc1)C(=O)N[C@]1(C)CCCCCCC=CCCC[C@@](C)(C(=O)N[C@@H](CCC(N)=O)C(=O)N[C@@H](CC(N)=O)C(N)=O)NC(=O)[C@H](CC(C)C)NC(=O)[C@H](CC(C)C)NC(=O)[C@@H](CCCNC(=N)N)NC(=O)[C@H](Cc2c[nH]c3ccccc23)NC(=O)[C@H](CC(C)C)NC(=O)[C@H](CC(N)=O)NC1=O)[C@H](C)O | N
O=c1[nH]c(=O)n([C@H]2C[C@@H](O)[C@@H](CO)O2)cc1I | N
CCNC(=O)Nc1ccc(Oc2ncnc(N)c2C=NOC)cc1Cl | N
COc1cc2nccc(Oc3ccc(NC(=O)Nc4ccc(F)cc4F)c(F)c3)c2cc1OC | N
Cc1ccccc1C(C(=O)NC1CCCCC1)N(C(=O)CNc1ccc(C#N)cc1)c1cccc(F)c1 (stereo unspecified) | N

====

Catalogue of compounds with associated Potency
Assay: qHTS Screen of the MIPE 4.0 Collection Against Ewings Sarcoma (TC71) (AID 1259253); further: potency means the concentration at half of the fitted maximal effect; nearly all actives have a fitted effect of over 40% in size
Details: TC71 Ewing sarcoma viability, CellTiter-Glo, 48 h; series mostly up to 45.8 µM
Records with an inconclusive call do not appear. Active and inactive are the calls of the source. Calls come from the whole dose curve; as a rule, active = well fitted inhibition curve with a large enough effect; inconclusive = small, poorly fitted or top-dose-only effect; inactive = no such curve, though single readings can be large or run the other way.

COMPOUND | Potency
C[C@H]1[C@H](O)O[C@@H]2O[C@@]3(C)CC[C@@H]4[C@H](C)CC[C@@H]1[C@@]24OO3 | 1.48 µM (active)
COc1cc2nc(-c3cc(F)ccc3O)nc(N[C@@H]3CNC[C@@H]3C(C)(C)O)c2cc1OC | 20.9 µM (active)
CCC[C@H](Nc1nc(-c2ccc(NC(=O)NCC)c(OC)c2)ncc1C)c1cccnc1 | 0.0093 µM (active)
CCCCC[C@H](O)C=C[C@H]1[C@H](O)CC(=O)[C@H]1CC=CCCCC(=O)O | 18.7 µM (active)
CN1N=C(N)c2cn([C@@H]3O[C@H](COP(=O)(O)O)[C@@H](O)[C@@H]3O)c3ncnc1c23 | 7.43 µM (active)
CO[C@H]1O[C@@H]2O[C@@]3(C)CC[C@@H]4[C@@H](C)CC[C@@H]([C@H]1C)[C@@]24OO3 | 4.69 µM (active)
CC(O)=C(C#N)C(=O)Nc1ccc(C(F)(F)F)cc1 | 18.7 µM (active)
CC(C)c1c(C(=O)Nc2ccccc2)c(-c2ccccc2)c(-c2ccc(F)cc2)n1CC[C@H](O)C[C@@H](O)CC(=O)O | 14.8 µM (active)
O=C(O)CCNc1cc(N2CCc3ccccc3CC2)nc(-c2ccccn2)n1 | 26.4 µM (active)

All figures here come from PubChem BioAssay (NCATS).
